Test system: P-Akt (S473)
Test: Cell based AlphaLISA assay, inhibition of P-Akt (S473) (mTORC2 substrate phosphorylation) in MDA-MB-468 cells
Details: Homo sapiens, MDA-MB-468, 4 h, AlphaLISA, two to four hours at 37° C., read-out: pIC50 for Inhibition of mTORC1 and mTORC2 Substrate Phosphorylation, p-AKT 1/2/3 -(S473) (converted)
Hi there, I'd appreciate the recorded IC50 for every entry that follows.

API: value(readout=IC50, system=P-Akt (S473)) for record CO[C@H]1C[C@@H]2CC[C@@H](C)[C@@](O)(O2)C(=O)C(=O)N2CCCC[C@H]2C(=O)O[C@H]([C@H](C)C[C@@H]2CC[C@H](n3cc(-c4cnc(N5CCN(c6ncc(C(=O)NCCOCCC(=O)NCCCCn7nc(-c8cc9cc(O)ccc9[nH]8)c8c(N)ncnc87)cn6)CC5)nc4)nn3)[C@H](OC)C2)CC(=O)[C@H](C)/C=C(\C)[C@@H](O)[C@@H](OC)C(=O)[C@H](C)C[C@H](C)/C=C/C=C/C=C/1C
> 1000 nM

API: value(readout=IC50, system=P-Akt (S473)) for record CO[C@H]1C[C@@H]2CC[C@@H](C)[C@@](O)(O2)C(=O)C(=O)N2CCCC[C@H]2C(=O)O[C@H]([C@H](C)C[C@@H]2CC[C@H](n3cc(COC(=O)NCCOCCOCCOCCOCCC(=O)NCc4cnc(N5CCN(c6ncc(C(=O)NCCCCn7nc(-c8cc9cc(O)ccc9[nH]8)c8c(N)ncnc87)cn6)CC5)nc4)nn3)[C@H](OC)C2)CC(=O)[C@H](C)/C=C(\C)[C@@H](O)[C@@H](OC)C(=O)[C@H](C)C[C@H](C)/C=C/C=C/C=C/1C
31.6 to 1000 nM

API: value(readout=IC50, system=P-Akt (S473)) for record CO[C@H]1C[C@@H]2CC[C@@H](C)[C@@](O)(O2)C(=O)C(=O)N2CCCC[C@H]2C(=O)O[C@H]([C@H](C)C[C@@H]2CC[C@H](n3cc(CCCC(=O)NCCOCCOCCOCCC(=O)NCCOCCOCCC(=O)NCCCCn4nc(-c5ccc6oc(N)nc6c5)c5c(N)ncnc54)nn3)[C@H](OC)C2)C/C(=N/OCc2ccccc2)[C@H](C)/C=C(\C)[C@@H](O)[C@@H](OC)C(=O)[C@H](C)C[C@H](C)/C=C/C=C/C=C/1C
> 1000 nM

API: value(readout=IC50, system=P-Akt (S473)) for record CO[C@H]1C[C@@H]2CC[C@@H](C)[C@@](O)(O2)C(=O)C(=O)N2CCCC[C@H]2C(=O)O[C@H]([C@H](C)C[C@@H]2CC[C@H](n3cc(-c4cnc(N5CCN(c6ncc(C(=O)NCCOCCOCCC(=O)NCCCCn7nc(-c8cc9cc(O)ccc9[nH]8)c8c(N)ncnc87)cn6)CC5)nc4)nn3)[C@H](OC)C2)CC(=O)[C@H](C)/C=C(\C)[C@@H](O)[C@@H](OC)C(=O)[C@H](C)C[C@H](C)/C=C/C=C/C=C/1C
> 1000 nM

API: value(readout=IC50, system=P-Akt (S473)) for record CO[C@H]1C[C@@H]2CC[C@@H](C)[C@@](O)(O2)C(=O)C(=O)N2CCCC[C@H]2C(=O)O[C@H]([C@H](C)C[C@@H]2CC[C@H](n3cc(COC(=O)NCCOCCOCCOCCC(=O)NCCOCCOCCOCCOCCC(=O)NCCCCn4nc(-c5ccc6oc(N)nc6c5)c5c(N)ncnc54)nn3)[C@H](OC)C2)CC(=O)[C@H](C)/C=C(\C)[C@@H](O)[C@@H](OC)C(=O)[C@H](C)C[C@H](C)/C=C/C=C/C=C/1C
3.16 to 31.6 nM
